Selectivity (fold) KOP/DOP values, listed per item
target: MOP receptor (Homo sapiens)
Construct: expressed in transfected cells; host or cells: HEK293
Sequence (P35372 whole entry): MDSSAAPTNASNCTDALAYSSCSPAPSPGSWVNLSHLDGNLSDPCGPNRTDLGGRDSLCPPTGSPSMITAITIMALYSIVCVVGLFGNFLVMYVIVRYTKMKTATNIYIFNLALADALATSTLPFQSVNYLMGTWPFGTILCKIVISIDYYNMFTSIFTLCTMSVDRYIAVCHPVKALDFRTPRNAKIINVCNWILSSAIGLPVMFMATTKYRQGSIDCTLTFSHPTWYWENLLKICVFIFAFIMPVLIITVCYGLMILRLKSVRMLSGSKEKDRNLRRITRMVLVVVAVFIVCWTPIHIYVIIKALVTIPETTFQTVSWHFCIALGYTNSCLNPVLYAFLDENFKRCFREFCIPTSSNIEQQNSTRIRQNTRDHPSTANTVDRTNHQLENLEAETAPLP
assay comment: cell-based
Where a SMILES comes first, the peptide text is derived from it. [ ]: non-standard residue; d: D form. Phe(4-Cl) = N[C@@H](Cc1ccc(Cl)cc1)C(=O)O; Phe(4-F) = N[C@@H](Cc1ccc(F)cc1)C(=O)O; NMeR = CN[C@@H](CCCNC(=N)N)C(=O)O; Ahx = NCCCCCC(=O)O; Sar = CNCC(=O)O
endpoint label: Selectivity (fold) KOP/DOP

compound | endpoint label | endpoint value
CC(C)C[C@H](NC(=O)[C@H](Cc1ccc([N+](=O)[O-])cc1)NC(=O)CNC(=O)CNC(=O)[C@@H](N)Cc1ccc(O)cc1)C(=O)N[C@@H](CCCNC(=N)N)C(=O)N[C@H](CCCNC(=N)N)C(N)=O | Selectivity (fold) KOP/DOP | 2
CC(C)C[C@H](NC(=O)[C@H](Cc1ccc(Cl)cc1)NC(=O)[C@H](C)NC(=O)[C@@H](N)Cc1ccc(O)cc1)C(=O)N[C@@H](CCCNC(=N)N)C(=O)N[C@H](CCCNC(=N)N)C(N)=O [KA307] (H-YA[Phe(4-Cl)]LR[dR]-NH2) | Selectivity (fold) KOP/DOP | 2
CC(C)C[C@H](NC(=O)[C@H](Cc1ccc(F)cc1)NC(=O)CN(C)C(=O)[C@@H](N)Cc1ccc(O)cc1)C(=O)N(C)[C@@H](CCCNC(=N)N)C(=O)N[C@H](CCCNC(=N)N)C(N)=O [KA302] (H-Y[Sar][Phe(4-F)]L[NMeR][dR]-NH2) | Selectivity (fold) KOP/DOP | 344
CC(C)C[C@H](NC(=O)[C@H](Cc1ccc(Cl)cc1)NC(=O)CN(C)C(=O)[C@@H](N)Cc1ccc(O)cc1)C(=O)N[C@@H](CCCNC(=N)N)C(=O)N[C@H](CCCNC(=N)N)C(=O)NCCCCCC(N)=O [KA304] (H-Y[Sar][Phe(4-Cl)]LR[dR][Ahx]-NH2) | Selectivity (fold) KOP/DOP | 100
CC(C)C[C@H](NC(=O)[C@H](Cc1ccc(F)cc1)NC(=O)CN(C)C(=O)[C@@H](N)Cc1ccc(O)cc1)C(=O)N[C@@H](CCCNC(=N)N)C(=O)N[C@H](CCCNC(=N)N)C(N)=O [KA207] (H-Y[Sar][Phe(4-F)]LR[dR]-NH2) | Selectivity (fold) KOP/DOP | 515
C[C@@H](O)[C@H](NC(=O)[C@H](Cc1ccc(Cl)cc1)NC(=O)CN(C)C(=O)[C@@H](N)Cc1ccc(O)cc1)C(=O)N[C@@H](CCCNC(=N)N)C(=O)N[C@H](CCCNC(=N)N)C(N)=O [KA308] (H-Y[Sar][Phe(4-Cl)]TR[dR]-NH2) | Selectivity (fold) KOP/DOP | 25

====

assay comment: Metabolic stability in rat plasma
Assay type: in vitro ADME
measurement parameters: rat, plasma, pooled rat plasma, 37°C, peptide 100 μM; read-out: Stability (t1/2) Plasma
Where a SMILES comes first, the peptide text is derived from it. [ ]: non-standard residue; d: D form. Phe(4-NO2) = N[C@@H](Cc1ccc([N+](=O)[O-])cc1)C(=O)O; Phe(4-Cl) = N[C@@H](Cc1ccc(Cl)cc1)C(=O)O; Phe(4-F) = N[C@@H](Cc1ccc(F)cc1)C(=O)O; NMeR = CN[C@@H](CCCNC(=N)N)C(=O)O; Aoc = NCCCCCCCC(=O)O; Sar = CNCC(=O)O
# if measured half-life < 30 min: class 1  # else: class 0

compound | label
CC(C)C[C@H](NC(=O)[C@H](Cc1ccc(Cl)cc1)NC(=O)CN(C)C(=O)[C@@H](N)Cc1ccc(O)cc1)C(=O)N[C@@H](CCCNC(=N)N)C(=O)N[C@H](CCCNC(=N)N)C(N)=O [KA206] (H-Y[Sar][Phe(4-Cl)]LR[dR]-NH2) | class 0
CC(C)C[C@H](NC(=O)[C@H](Cc1ccccc1)NC(=O)CN(C)C(=O)[C@@H](N)Cc1ccc(O)cc1)C(=O)N[C@@H](CCCNC(=N)N)C(=O)N[C@H](CCCNC(=N)N)C(N)=O [KA203] (H-Y[Sar]FLR[dR]-NH2) | class 0
CC(C)C[C@H](NC(=O)[C@H](Cc1ccccc1)NC(=O)CNC(=O)CNC(=O)[C@@H](N)Cc1ccc(O)cc1)C(=O)N[C@@H](CCCNC(=N)N)C(=O)N[C@@H](CCCNC(=N)N)C(=O)O [Dyn 1-7, reference compound] | class 1
CC(C)C[C@H](NC(=O)[C@H](Cc1ccc([N+](=O)[O-])cc1)NC(=O)CN(C)C(=O)[C@@H](N)Cc1ccc(O)cc1)C(=O)N[C@H](CCCNC(=N)N)C(=O)N[C@@H](CCCNC(=N)N)C(N)=O [KA205] (H-Y[Sar][Phe(4-NO2)]L[dR]R-NH2) | class 1
CC(C)C[C@H](NC(=O)[C@H](Cc1ccc(F)cc1)NC(=O)CN(C)C(=O)[C@@H](N)Cc1ccc(O)cc1)C(=O)N[C@@H](CCCNC(=N)N)C(=O)N[C@H](CCCNC(=N)N)C(N)=O [KA207] (H-Y[Sar][Phe(4-F)]LR[dR]-NH2) | class 0
CC(C)C[C@H](NC(=O)[C@H](Cc1ccc([N+](=O)[O-])cc1)NC(=O)CN(C)C(=O)[C@@H](N)Cc1ccc(O)cc1)C(=O)N(C)[C@@H](CCCNC(=N)N)C(=O)N[C@H](CCCNC(=N)N)C(N)=O [KA303] (H-Y[Sar][Phe(4-NO2)]L[NMeR][dR]-NH2) | class 0
CC(C)C[C@H](NC(=O)[C@H](Cc1ccc([N+](=O)[O-])cc1)NC(=O)CN(C)C(=O)[C@@H](N)Cc1ccc(O)cc1)C(=O)N[C@@H](CCCNC(=N)N)C(=O)N[C@H](CCCNC(=N)N)C(=O)NCCCCCCCC(N)=O [KA314] (H-Y[Sar][Phe(4-NO2)]LR[dR][Aoc]-NH2) | class 1
CC(C)C[C@H](NC(=O)[C@H](Cc1ccc([N+](=O)[O-])cc1)NC(=O)CN(C)C(=O)[C@@H](N)Cc1ccc(O)cc1)C(=O)N[C@@H](CCCNC(=N)N)C(=O)N(C)[C@@H](CCCNC(=N)N)C(=O)NCCCCCCCC(N)=O [KA313] (H-Y[Sar][Phe(4-NO2)]LR[NMeR][Aoc]-NH2) | class 1
CC(C)C[C@H](NC(=O)[C@H](Cc1ccc(Cl)cc1)NC(=O)CN(C)C(=O)[C@@H](N)Cc1ccc(O)cc1)C(=O)N(C)[C@@H](CCCNC(=N)N)C(=O)N[C@H](CCCNC(=N)N)C(N)=O [KA301] (H-Y[Sar][Phe(4-Cl)]L[NMeR][dR]-NH2) | class 0
